Reference source for all entries: patent US20250120981A1

assay info: Pharmacokinetics in humans, MRTX1133 formulation, oral, single and multiple doses
Format: in vivo
cond: human, plasma, po, 800 mg, single oral dose of 800 mg, fasted; 6 h; mean of subjects; read-out: Plasma concentration, Mean
metric: concentration at 6 h
Write the numeric value and follow it with the unit.

## Task // concentration at 6 h lookup, key: C#Cc1c(F)ccc2cc(O)cc(-c3ncc4c(N5C[C@H]6CC[C@@H](C5)N6)nc(OC[C@@]56CCCN5C[C@H](F)C6)nc4c3F)c12
## Result 57.9 ng/mL

----------
assay info: Pharmacokinetics in humans, MRTX1133 formulation, oral, single and multiple doses
Assay type: in vivo
cond: human, plasma, po, 400 mg, single oral dose of 400 mg with a low-fat meal; 1 h; mean of subjects; read-out: Plasma concentration, Mean
metric: concentration at 1 h
Answer with the figure and its unit, nothing else.

## Task Record request: concentration at 1 h value, item C#Cc1c(F)ccc2cc(O)cc(-c3ncc4c(N5C[C@H]6CC[C@@H](C5)N6)nc(OC[C@@]56CCCN5C[C@H](F)C6)nc4c3F)c12
## Result 46.7 ng/mL

----------
assay info: Pharmacokinetics in humans, MRTX1133 formulation, oral, single and multiple doses
Format: in vivo
cond: human, plasma, po, 800 mg, single oral dose of 800 mg, fasted; 24 h; mean of subjects; read-out: Plasma concentration, Mean
metric: concentration at 24 h (ng/mL)
One number for each entry, in ng/mL.

## Task // concentration at 24 h lookup, key: C#Cc1c(F)ccc2cc(O)cc(-c3ncc4c(N5C[C@H]6CC[C@@H](C5)N6)nc(OC[C@@]56CCCN5C[C@H](F)C6)nc4c3F)c12 [MRTX1133]
## Result 25.5

----------
assay info: Pharmacokinetics in humans, MRTX1133 formulation, oral, single and multiple doses
Format: in vivo
cond: human, plasma, po, 400 mg, multiple oral doses of 400 mg BID, fasted; 8 h; mean of subjects; read-out: Plasma concentration, Mean
metric: concentration at 8 h (ng/mL)
One number for each entry, in ng/mL.

## Task Look up concentration at 8 h for this compound: C#Cc1c(F)ccc2cc(O)cc(-c3ncc4c(N5C[C@H]6CC[C@@H](C5)N6)nc(OC[C@@]56CCCN5C[C@H](F)C6)nc4c3F)c12
## Result 40.3

----------
assay info: Pharmacokinetics in humans, MRTX1133 formulation, oral, single and multiple doses
Format: in vivo
cond: human, plasma, po, 800 mg, multiple oral doses of 800 mg BID, fasted; 0.5 h; Mean of subjects; read-out: Plasma concentration
metric: concentration at 0.5 h (ng/mL)
Numbers only, in ng/mL.

## Task // concentration at 0.5 h lookup, key: C#Cc1c(F)ccc2cc(O)cc(-c3ncc4c(N5C[C@H]6CC[C@@H](C5)N6)nc(OC[C@@]56CCCN5C[C@H](F)C6)nc4c3F)c12 [MRTX1133]
## Result 97.2

----------
assay info: Pharmacokinetics in humans, MRTX1133 formulation, oral, single and multiple doses
Format: in vivo
cond: human, plasma, po, 800 mg, multiple oral doses of 800 mg BID, fasted; 2 h; Mean of subjects; read-out: Plasma concentration
metric: concentration at 2 h (ng/mL)
One number for each entry, in ng/mL.

## Task May I ask what concentration at 2 h has been recorded for C#Cc1c(F)ccc2cc(O)cc(-c3ncc4c(N5C[C@H]6CC[C@@H](C5)N6)nc(OC[C@@]56CCCN5C[C@H](F)C6)nc4c3F)c12 [MRTX1133] ?
## Result 122
